- EXPERIMENT SUMMARY: Cytotoxicity against mouse RAW264.7 cells assessed as cell survival rate up to 25 uM after 18 hrs by MTT assay relative to control
- Format: cell-based
- DETAILS: read-out: Survival
Known viability at 18 h of a selection of molecules
Kindly answer with a numeric value in %, unit omitted.

> print(dat)
                                   molecule            readout  assay.result
1  CSc1ccc(/C=C/C(=O)O[C@H]2CC3C(=C2C)[C@H]2OC(=O)[C@@H](C)[C@@H]2CC[C@@]3(C)O)cc1 (some centres not stated)  viability at 18 h           100
2  CCCc1ccc(C(=O)O[C@H]2CC3C(=C2C)[C@H]2OC(=O)[C@@H](C)[C@@H]2CC[C@@]3(C)O)cc1 (some centres not stated)  viability at 18 h          73.4
3  CC1=C2C(C[C@@H]1OC(=O)c1ccc(Cl)cc1)[C@](C)(O)CC[C@H]1[C@H](C)C(=O)O[C@H]21 (some centres not stated)  viability at 18 h           100
4  CC1=C2C(C[C@@H]1OC(=O)c1ccc(C(C)C)cc1)[C@](C)(O)CC[C@H]1[C@H](C)C(=O)O[C@H]21 (some centres not stated)  viability at 18 h          74.7
5  CCc1ccc(C(=O)O[C@H]2CC3C(=C2C)[C@H]2OC(=O)[C@@H](C)[C@@H]2CC[C@@]3(C)O)cc1 (some centres not stated)  viability at 18 h          85.2

Looking for the measured viability at 18 h of CC(=O)O[C@]1(C)CC[C@H]2[C@H](C)C(=O)O[C@@H]2C2=C(C)C(=O)CC21 (some centres not stated) , can you help?
100

What does the data say about its viability at 18 h? Entry: CC1=C2C(C[C@@H]1OC(=O)c1cccnc1)[C@](C)(O)CC[C@H]1[C@H](C)C(=O)O[C@H]21 (some centres not stated)
86.9
